System: Wolbachia pipientis
assayOverview: Anti-Wolbachia Cell-Based Screen
Format: functional
Parameters: scale not given: in the data most compounds retested in dose-response had high values
conditionSet: 5 µM
Out of some 48,000 compounds screened, about 13,000 (27%) showed an effect of 50% or more. Some of the results follow.
Answer each item with its documented Percent Effect.
One number for each entry, in %.

Below are worked cases with known answers.
CNC(=O)c1cc(C)n(-c2ccccc2)n1 | 92.62
COCCCc1nc(-c2ccc(S(=O)(=O)N3CCCC3)cc2)cs1 | 23.72
CCOc1ccc(CN(CCOC)c2nc(C)nc3oc(C)nc23)cc1 | -12.59

Below are 8 compounds. Give each one its Percent Effect.
1. CCOc1ccc(-n2ccc3nc(N4CCCC4)ncc3c2=O)cc1
2. CS(=O)(=O)CCN1CC(c2ccccc2)(c2ccccc2)CCC1=O
3. CCc1sc(C(=O)Nc2cnn(CC(N)=O)c2)cc1C
4. O=C(NCc1ccc(OCC2CC2)nc1)Nc1c(F)cccc1F
5. CC(C)Oc1ccc(CNC(=O)C2CCC(=O)N2)cn1 (centres undefined)
6. CC(=O)N1CCCCC1c1cc(CO)[nH]n1 (centres undefined)
7. CC(C)CNc1nc(C(=O)/N=c2\[nH]nc(C(C)(C)C)s2)cs1
8. N#Cc1cccc(NC2CC(=O)N(C3Cc4ccccc4C3)C2)n1 (centres undefined)

Result ::
[-8.321, -17.1, -1.226, -3.933, 3.42, -3.311, 9.925, 5.834]

Below are 4 compounds. Give each one its Percent Effect.
1. COc1ccc(/C=C/CN2C[C@H]3CC[C@@H]2CN(S(=O)(=O)N(C)C)C3)cc1
2. Cc1nccc(CN2CC[C@@]3(CCCN3Cc3ccccc3)[C@@H](O)C2)n1
3. Cc1ccc(CNC(=O)Nc2nnc(C)s2)cn1
4. CC(C)(C)CNS(=O)(=O)C1CS(=O)(=O)c2ccccc21 (centres undefined)

Result ::
13.82
93.51
3.385
-2.538

Below are 2 compounds. Give each one its Percent Effect.
1. COc1ccc(F)c(CN2CCCC(O)(CNCc3ncc[nH]3)C2=O)c1 (centres undefined)
2. CNC(=O)[C@@H]1COC[C@H]2CN(C(=O)c3ccc(C)c(F)c3)C[C@H]21

Result ::
1. 0.3473
2. 1.789

Below are 7 compounds. Give each one its Percent Effect.
1. Cc1nnc(NC(=O)NCc2ccc(OC3CCCC3)nc2)s1
2. Cn1c(-c2ccccc2)nn(CCNS(=O)(=O)c2ccccc2Cl)c1=O
3. CC(O)(CNc1ccccn1)c1ccccc1 (centres undefined)
4. COc1ccc(CNC(=O)NC2CCN(CC3CCCC3)CC2)cn1
5. Cc1n[nH]c2ncc(CNC3CCCN(c4ncccn4)C3)cc12.Cl (centres undefined)
6. Cc1nnc(NC(=O)NCc2ccc(OC(C)C)nc2)s1
7. CCCOc1cccc(NS(=O)(=O)c2cc(C(=O)O)cs2)c1

Result ::
[94.72, -1.369, 12.1, 15.19, -16.46, 85.37, 12.59]

###

Tested on: Wolbachia pipientis
assayOverview: Anti-Wolbachia Cell-Based Screen
Type: functional
Set-up: scale not given: in the data most compounds retested in dose-response had high values
conditionSet: 5 µM
Out of some 48,000 compounds screened, about 13,000 (27%) showed an effect of 50% or more. The list shows a part of the results.
Answer each item with its documented Percent Effect.
One number for each entry, in %.

Below are 8 compounds. Give each one its Percent Effect.
1. CCN1CCN(C)C2(CCN(Cc3ccc(C)o3)CC2)C1=O.O=C(O)C(F)(F)F.O=C(O)C(F)(F)F
2. Fc1cccc(CN2CCO[C@H]3[C@@H](OCc4ccccn4)CC[C@@H]32)c1
3. NCC1Cc2cc(-c3nccc(N4CCC(O)CC4)n3)cc(Cl)c2O1 (stereo unspecified)
4. Cc1cccc(C(=O)N2CCCC2)c1NCC(=O)NC(C)(C#N)C1CC1 (stereo unspecified)
5. CC(C)C1CN(S(=O)(=O)c2ccc(C#N)cc2)CCS1 (stereo unspecified)
6. CC(C)NC(=O)C1CCC2(CCN(Cc3cnn(C)c3)CC2)C1.O=C(O)C(F)(F)F (stereo unspecified)
7. CO[C@H]1CC[C@H]2[C@H]1OCCN2Cc1ccc(F)cc1.O=C(O)C(F)(F)F
8. Cc1cc(-c2nn(C)c(Cl)c2CN2CCOC(C(=O)O)C2)no1 (stereo unspecified)

Result ::
1: -15.65; 2: 10.15; 3: -10.94; 4: 5.415; 5: -10.5; 6: -6.614; 7: 91.7; 8: -7.215

Below are 5 compounds. Give each one its Percent Effect.
1. CC(C)(C)n1ncc2c(=O)[nH]c(N3CC(O)C3)nc21
2. O=C(C1CCSCC1)N1CCC2(CC1)COC(COCC1CC1)C2 (stereo unspecified)
3. COCCN1CCC2(CCN(Cc3nccs3)CC2)C1=O
4. Cc1ccc(CN2CCC3(CC2)C(=O)N(CCO)CCN3C)o1.O=C(O)C(F)(F)F.O=C(O)C(F)(F)F
5. O=C(CCN1CCOC(C(F)(F)F)C1)NCc1cccc(Cl)c1 (stereo unspecified)

Result ::
1: 23.02; 2: 0.4038; 3: -0.9039; 4: 5.189; 5: -5.951

Below are 5 compounds. Give each one its Percent Effect.
1. Cc1cccc(CN2CCC3(CCCN(C(=O)c4ccoc4)C3)C2=O)n1.O=C(O)C(F)(F)F (stereo unspecified)
2. O=C(O)C1CN(Cc2cccc(-c3ccccn3)c2)CCO1 (stereo unspecified)
3. Cc1ccc(CN2CCCC3(CCC(=O)N3)CC2)s1.O=C(O)C(F)(F)F (stereo unspecified)
4. O=C(Nc1nncs1)N1CCC(CCO)CC1
5. O=C(C[C@H]1[C@H]2CN(C(=O)CO)C[C@@H]12)Nc1cccnc1

Result ::
1. 1.474
2. 102.3
3. 3.95
4. -8.889
5. 10.82
